Test system: Candida parapsilosis
assay.explanation: Antifungal activity against Candida parapsilosis ATCC 22019 after 24 hrs by serial dilution method
Type: functional
condition: Lodderomyces parapsilosis, ATCC 22019, 24 h
value.type: MIC80 (µg/mL)
One number for each entry, in µg/mL.

>  <molecule>
CC(O)Cn1ncn(-c2ccc(C(F)(F)C(O)(Cn3cnnn3)c3ccc(F)cc3F)nc2)c1=O (centres undefined)

>  <endpoint.result>
8

$$$$
>  <molecule>
O=c1n(-c2ccc(C(F)(F)C(O)(Cn3cnnn3)c3ccc(F)cc3F)nc2)cnn1C1CCCC1 (centres undefined)

>  <endpoint.result>
0.125

$$$$

Parameters: items (list). Returns: MIC80 for each item.
1. CCC(C)n1ncn(-c2ccc(C(F)(F)C(O)(Cn3cnnn3)c3ccc(F)cc3F)nc2)c1=O (centres undefined)
2. O=c1n(-c2ccc(C(F)(F)C(O)(Cn3cnnn3)c3ccc(F)cc3F)nc2)cnn1C1CCC(F)(F)CC1 (centres undefined)
3. CC(C)(C)Cn1ncn(-c2ccc(C(F)(F)C(O)(Cn3cnnn3)c3ccc(F)cc3F)nc2)c1=O (centres undefined)
4. CCC(CC)n1ncn(-c2ccc(C(F)(F)C(O)(Cn3cnnn3)c3ccc(F)cc3F)nc2)c1=O (centres undefined)
5. Cc1ccc(Cn2ncn(-c3ccc(C(F)(F)C(O)(Cn4cnnn4)c4ccc(F)cc4F)nc3)c2=O)cc1 (centres undefined)
6. O=c1n(-c2ccc(C(F)(F)C(O)(Cn3cnnn3)c3ccc(F)cc3F)nc2)cnn1Cc1ccc(F)cc1 (centres undefined)
7. O=c1n(-c2ccc(C(F)(F)C(O)(Cn3cnnn3)c3ccc(F)cc3F)nc2)cnn1C1CC=CCC1 (centres undefined)
8. N#Cc1ccc(Cn2ncn(-c3ccc(C(F)(F)C(O)(Cn4cnnn4)c4ccc(F)cc4F)nc3)c2=O)cc1 (centres undefined)

RESULT:
[0.25, 0.5, 0.5, 0.25, 0.25, 0.25, 0.125, 0.5]

QUERY: What value of MIC80 has been recorded for this entry: CC(C)n1ncn(-c2ccc(C(F)(F)C(O)(Cn3cnnn3)c3ccc(F)cc3F)nc2)c1=O (centres undefined)
RESULT: 0.5

----------
Tested on: Candida albicans
assay.explanation: Antifungal activity against Candida albicans Y0109 after 24 hrs by serial dilution method
Format: functional
condition: Y0109, 24 h
value.type: MIC80 (µg/mL)
Give bare numbers, in µg/mL.

>  <compound>
O=c1n(-c2ccc(C(F)(F)C(O)(Cn3cnnn3)c3ccc(F)cc3F)nc2)cnn1CC1CCCCC1 (stereo not drawn)

>  <target.desc>
Candida albicans

>  <value.type>
MIC80

>  <endpoint.result>
0.5

$$$$
>  <compound>
OC(Cn1cncn1)(Cn1cncn1)c1ccc(F)cc1F [FLUCONAZOLE]

>  <target.desc>
Candida albicans

>  <value.type>
MIC80

>  <endpoint.result>
2

$$$$
>  <compound>
O=c1n(-c2ccc(C(F)(F)C(O)(Cn3cnnn3)c3ccc(F)cc3F)nc2)cnn1Cc1ccncc1 (stereo not drawn)

>  <target.desc>
Candida albicans

>  <value.type>
MIC80

>  <endpoint.result>
4

$$$$

Parameters: items (list). Returns: MIC80 for each item.
1. O=c1n(-c2ccc(C(F)(F)C(O)(Cn3cnnn3)c3ccc(F)cc3F)nc2)cnn1Cc1cccnc1 (stereo not drawn)
2. O=c1n(-c2ccc(C(F)(F)C(O)(Cn3cnnn3)c3ccc(F)cc3F)nc2)cnn1Cc1ccccn1 (stereo not drawn)
3. O=c1n(-c2ccc(C(F)(F)C(O)(Cn3cnnn3)c3ccc(F)cc3F)nc2)cnn1Cc1ccc(OC(F)(F)F)cc1 (stereo not drawn)
4. O=c1n(-c2ccc(C(F)(F)C(O)(Cn3cnnn3)c3ccc(F)cc3F)nc2)cnn1CC1CC1 (stereo not drawn)

RESULT:
[4, 4, 1, 0.5]
